So I've got a bunch of compounds here, and I need their pIC50 values.
target: EP2 (Homo sapiens (Human), UniProt P43116); test: hEP2 cAMP assay (SF295 glioblastoma cells, HTRF cAMP); details: antagonistic activity
Sequence (P43116 whole entry): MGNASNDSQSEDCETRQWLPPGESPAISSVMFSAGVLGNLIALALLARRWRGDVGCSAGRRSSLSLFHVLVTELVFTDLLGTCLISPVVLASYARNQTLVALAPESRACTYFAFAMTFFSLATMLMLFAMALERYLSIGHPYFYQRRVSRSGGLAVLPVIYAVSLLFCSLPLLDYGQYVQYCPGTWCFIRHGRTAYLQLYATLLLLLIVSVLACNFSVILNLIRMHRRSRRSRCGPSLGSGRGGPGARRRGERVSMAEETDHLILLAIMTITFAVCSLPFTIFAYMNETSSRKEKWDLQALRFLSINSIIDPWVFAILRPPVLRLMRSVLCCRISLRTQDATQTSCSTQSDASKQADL
Answers are plain numbers, as −log10 of the molar value.

For orientation, consider the following solved cases.
CCOc1cc(-c2cc(NCCc3cc4ccsc4cc3C#N)ncn2)ccc1C(=O)O | 7.12
CCOc1cc(-c2cc(NCCc3ccc4cccc(F)c4c3)ncn2)sc1C(=O)O | 5.91
CCOc1cc(-c2cc(NCCc3cc4c(cc3OC)OCO4)ncn2)ccc1OCC(=O)O | 6.65
C=C(C(=O)O)c1ccc(-c2cc(NCCc3cc4c(cc3OC)OCCO4)ncn2)cc1 | 5.88
CCOc1cc(-c2cc(NCCc3ccc4c(c3)CCS4)ncn2)ccc1C(=O)O | 6.57

Report pIC50 for each item below.
1. CCOc1cc(-c2cc(NCCc3c(C#N)cc4ccccc4c3F)ncn2)ccc1C(=O)O
2. CCOc1cc(-c2cc(NCCc3ccc4ccccc4c3C)ncn2)ccc1-c1nnn[nH]1
3. CCOc1cc(-c2cc(NCCc3cc(Cl)c4sccc4c3)ncn2)sc1C(=O)O
4. CCOc1cc(-c2cc(NCCc3c(C#N)cc4ccccc4c3C)ncn2)ccc1C(=O)O

OUT:
[5.75, 6.66, 7.21, 6.48]

Entry source: patent US11839613B2
